test: in vitro; assay type: in vitro ADME; settings: human, microsomes, pH 7.4, HLM Clint
Items are presented alongside their recorded microsomal CLint at 0.1 μM.
Number in µL/min/mg, nothing else.

- COMPOUND: "Cc1cc(Nc2cc(CO)nc(N(C)[C@@H]3C[C@H]4CC[C@@H](C3)N4CCC#N)n2)n[nH]1 [Compound C-2, reference compound]"
  microsomal CLint at 0.1 μM, µL/min/mg: 12
- COMPOUND: "CCS(=O)(=O)N1[C@@H]2CCC[C@H]1C[C@H](N(C)c1nc(Nc3cc(C)[nH]n3)cc(C(N)=O)n1)C2 [Compound C-1, reference compound]"
  microsomal CLint at 0.1 μM, µL/min/mg: 6

Next compound, microsomal CLint at 0.1 μM to be filled in.
Data request: Query: microsomal CLint at 0.1 μM; subject: CCS(=O)(=O)N1[C@@H]2CCC[C@H]1C[C@H](N(C)c1nc(CO)c(F)c(Nc3cc(C)[nH]n3)n1)C2
Data returned: 136

---

Test: Assay 5: rat pharmacokinetics
Type: in vivo, male Sprague Dawley rats
Details: male, Sprague Dawley; rat plasma, IV (1 mg/kg)
Method: Assay 5: Rat Pharmacokinetics Assay The objective of this study was to assess the pharmacokinetics of compound (I) in plasma following single oral (PO, n=3) or intravenous (IV, n=2) administration to male Sprague Dawley rats. […] Plasma levels of compound (I) were determined by LC-MS-MS analysis. Standard PK parameters were determined using Phoenix WinNonlin, (Certara Inc.).
MEASURE: Cmax
Mention the unit after the number when you answer.

Data request: Query: Cmax; subject: CCS(=O)(=O)N1[C@@H]2CCC[C@H]1C[C@H](N(C)c1nc(CO)c(F)c(Nc3cc(C)[nH]n3)n1)C2 [Compound (I)]
Data returned: 0.907 µg/mL

---

test: Assay 9: skin tissue concentration in mice; format: in vivo; conditions: Balb/c, mouse, topical ointment 25 μl/cm^2, biopsy one hour after IL-31
MEASURE: concentration at 1.5 h (µM)
Number in µM, nothing else.

Data request: Query: concentration at 1.5 h; subject: CCS(=O)(=O)N1[C@@H]2CCC[C@H]1C[C@H](N(C)c1nc(CO)c(F)c(Nc3cc(C)[nH]n3)n1)C2
Data returned: 62

---

assay: Assay 5: rat pharmacokinetics; assay type: in vivo, male Sprague Dawley rats; settings: male, Sprague Dawley; rat plasma, PO (5 mg/kg)
MEASURE: Cmax (ng/mL)
Number in ng/mL, nothing else.

Data request: Query: Cmax; subject: CCS(=O)(=O)N1[C@@H]2CCC[C@H]1C[C@H](N(C)c1nc(CO)c(F)c(Nc3cc(C)[nH]n3)n1)C2
Data returned: 77

---

assay: Assay 5: rat pharmacokinetics; assay type: in vivo, male Sprague Dawley rats; conditions: male, Sprague Dawley; rat plasma, IV (1 mg/kg); read-out: T½ (converted)
MEASURE: half-life (h)
Number in h, nothing else.

Data request: Query: half-life; subject: CCS(=O)(=O)N1[C@@H]2CCC[C@H]1C[C@H](N(C)c1nc(CO)c(F)c(Nc3cc(C)[nH]n3)n1)C2 [Compound (I)]
Data returned: 1.34

---

Assay: Assay 16: Caco-2 permeation assay
Format: in vitro ADME
Settings: human, Caco-2, with Verapamil 25 μM (P-gp); as illustrated in Table 13; read-out: permeability class (Caco-2)
Protocol: Assay 16: Caco-2 Permeation Assay The Caco-2 permeation assay was used as an indication of skin permeability. […] The compounds were evaluated at a concentration of 5 μM from 10 mM DMSO stock solutions in duplicate (n=2). The passive permeability of the compounds tested was evaluated using Caco-2 cell monolayers along with Verapamil (25 μM) to inhibit P-gp transport proteins in the apical to basolateral (A-B) direction. […]
MEASURE: Papp A→B at 120 min, 5 μM

Data request: Query: Papp A→B at 120 min, 5 μM; subject: CCS(=O)(=O)N1[C@@H]2CCC[C@H]1C[C@H](N(C)c1nc(CO)c(F)c(Nc3cc(C)[nH]n3)n1)C2 [Compound (I)]
Data returned: > 20 ×10⁻⁶ cm/s

Origin of measurements: patent US10774080B2
